# Target of assay: Cytochrome P450 2D6 (Homo sapiens) (UniProt P10635)
# Sequence (P10635 whole entry, looked up): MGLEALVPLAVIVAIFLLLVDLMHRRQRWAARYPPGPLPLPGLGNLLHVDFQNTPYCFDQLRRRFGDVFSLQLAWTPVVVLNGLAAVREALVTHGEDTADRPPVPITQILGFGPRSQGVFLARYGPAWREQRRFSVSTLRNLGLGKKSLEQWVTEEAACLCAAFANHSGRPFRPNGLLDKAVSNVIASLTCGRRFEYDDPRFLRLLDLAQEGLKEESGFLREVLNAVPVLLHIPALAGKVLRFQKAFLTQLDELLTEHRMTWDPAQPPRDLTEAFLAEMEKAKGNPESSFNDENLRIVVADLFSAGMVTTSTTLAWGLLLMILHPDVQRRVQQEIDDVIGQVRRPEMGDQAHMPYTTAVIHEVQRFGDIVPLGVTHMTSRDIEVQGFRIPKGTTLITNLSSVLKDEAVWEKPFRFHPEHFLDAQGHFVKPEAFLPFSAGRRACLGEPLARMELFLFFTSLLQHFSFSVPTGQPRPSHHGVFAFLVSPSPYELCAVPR
# Protocol notes: Cytochrome P450 family 2 subfamily D member 6 (CYP2D6) small molecule antagonists: luciferase biochemical (cell-free) qHTS assay (AID 1645840); further: nearly all actives have a fitted effect of over 55% in size
# Assay context: P450-Glo CYP2D6 enzyme, luciferin luminescence, 1 h; series mostly up to 57.4 µM
Records with an inconclusive call do not appear. The source made the active and inactive calls. The call rests on the fitted dose curve; in most records, active means well fitted inhibition curve with a large enough effect in the repeat runs; inconclusive means weak or mixed curves; inactive means flat fitted curve, though single readings scatter.
// one of 1 (yes) for active, 0 (no) for inactive, no free text

Compound: CC(C)C1CCC(C(=O)N[C@H](Cc2ccccc2)C(=O)O)CC1 (stereo not given in full)
Label value: 0 (no)
//
Compound: CC(C)(C#N)c1cc(Cn2cncn2)cc(C(C)(C)C#N)c1
Label value: 0 (no)
//
Compound: Cc1cccc(Nc2ccncc2S(=O)(=O)NC(=O)NC(C)C)c1
Label value: 0 (no)
//
Compound: CCn1cc(C(=O)O)c(=O)c2cc(F)c(N3CCNCC3)nc21
Label value: 0 (no)
//
Compound: COc1cc(NS(=O)(=O)c2ccc(N)cc2)nc(OC)n1
Label value: 0 (no)
//
Compound: NC(=O)c1cccnc1
Label value: 0 (no)
//
Compound: CCCCOc1ccc(CC(=O)NO)cc1
Label value: 1 (yes)
//
Compound: CCCc1nc(C)c2c(=O)[nH]c(-c3cc(S(=O)(=O)N4CCN(CC)CC4)ccc3OCC)nn12
Label value: 0 (no)
//
Compound: O=S(=O)(O)CCS
Label value: 0 (no)

Enquiry: Fill in: this test's call for COC(=O)Nc1nc2ccc(S(=O)c3ccccc3)cc2[nH]1 (stereo not given) is ___
Return: 1 (yes)

----------
# Protocol notes: qHTS of pediatric cancer cell lines to identify multiple opportunities for drug repurposing: Confirmatory screen for LAN-5 cells (AID 1347113); further: nearly all actives have a fitted effect of over 65% in size
# Assay context: LAN-5 neuroblastoma cell viability; series mostly up to 45.9 µM
Results filed as inconclusive are left out. The source made the active and inactive calls. Calls follow the shape of the dose curve; as a rule, active = well fitted cell-killing curve with a large enough effect; inconclusive = small, poorly fitted or top-dose-only effect, or effect the other way; inactive = no such curve, though single readings can be large or run the other way.
// one of Y (active), N (inactive), no free text

Molecular string: CCOC(=O)[C@H](CCc1ccccc1)N[C@H]1CS[C@H](c2cccs2)CN(CC(=O)O)C1=O
Label value: N

Molecular string: CC(C)C[C@H](NC(=O)[C@H](CCc1ccccc1)NC(=O)CN1CCOCC1)C(=O)N[C@@H](Cc1ccccc1)C(=O)N[C@@H](CC(C)C)C(=O)[C@@]1(C)CO1
Label value: Y

Next, consider the following compound.
Enquiry: Fill in: this test's call for Cc1cccc(N(C)C(=S)Oc2ccc3ccccc3c2)c1 is ___
Return: N

----------
# Target of assay: Glucocorticoid receptor (Homo sapiens) (UniProt P04150)
# Sequence (P04150 whole entry, looked up): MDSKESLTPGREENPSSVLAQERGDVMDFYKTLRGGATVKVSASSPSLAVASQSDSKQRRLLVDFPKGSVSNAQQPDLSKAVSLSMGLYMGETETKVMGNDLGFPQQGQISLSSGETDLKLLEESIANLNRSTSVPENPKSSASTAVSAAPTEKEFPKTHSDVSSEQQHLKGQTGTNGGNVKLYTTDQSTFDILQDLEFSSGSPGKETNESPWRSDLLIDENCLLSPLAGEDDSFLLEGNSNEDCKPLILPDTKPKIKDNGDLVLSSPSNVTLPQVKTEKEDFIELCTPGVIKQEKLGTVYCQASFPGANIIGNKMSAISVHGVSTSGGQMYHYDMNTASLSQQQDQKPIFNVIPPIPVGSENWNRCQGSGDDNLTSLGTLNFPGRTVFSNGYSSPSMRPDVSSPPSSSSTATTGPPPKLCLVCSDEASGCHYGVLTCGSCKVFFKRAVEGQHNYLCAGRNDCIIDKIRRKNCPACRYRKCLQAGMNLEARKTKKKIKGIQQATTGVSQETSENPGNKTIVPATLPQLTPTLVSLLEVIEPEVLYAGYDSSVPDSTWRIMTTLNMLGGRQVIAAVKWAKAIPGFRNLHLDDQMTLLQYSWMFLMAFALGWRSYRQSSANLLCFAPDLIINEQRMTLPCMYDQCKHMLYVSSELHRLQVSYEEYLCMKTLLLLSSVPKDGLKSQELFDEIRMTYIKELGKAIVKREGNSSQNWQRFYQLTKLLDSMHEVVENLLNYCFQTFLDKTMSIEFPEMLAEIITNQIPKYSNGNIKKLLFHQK
# Protocol notes: qHTS assay for small molecule agonists of glucocorticoid receptor signaling (AID 588532);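 further: 100% = dexamethasone at 0.1 µM and 0% = DMSO only wells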
# Assay context: HeLa MMTV-bla, beta-lactamase ratio, agonist, 18 h; active compounds read high; percent of dexamethasone control, DMSO zero
Results filed as inconclusive are left out.
Quantity name: activation (%)
Give bare numbers, in %.

Solved entries:
Molecule: O=C(O)c1cc(=O)[nH]c(=O)[nH]1
Quantity name: activation
Value units: %
Test result: -4.81
//
Molecule: OC(Cn1cncn1)(Cn1cncn1)c1ccc(F)cc1F
Quantity name: activation
Value units: %
Test result: 0.0878
//
Molecule: CC(=O)Oc1ccccc1C(=O)Nc1ncc([N+](=O)[O-])s1
Quantity name: activation
Value units: %
Test result: -4.89
//
Molecule: COc1ccc2cc3[n+](cc2c1OC)CCc1cc2c(cc1-3)OCO2
Quantity name: activation
Value units: %
Test result: 1.14
//
Molecule: N[C@@H](Cc1ccc(O)c(O)c1)C(=O)O
Quantity name: activation
Value units: %
Test result: -2.15

Give activation for each of the items listed below.
1. NNC(=O)c1ccncc1
2. Cc1ccnc2c1NC(=O)c1cccnc1N2C1CC1
3. Nc1nc(N)c2nc(CNc3ccc(C(=O)NC(CCC(=O)O)C(=O)O)cc3)cnc2n1 (centres undefined)

Return:
[-1.09, -5.33, 7.7]

Enquiry: # return activation of Cc1cc(NS(=O)(=O)c2ccc(N)cc2)no1 (system: Glucocorticoid receptor (Homo sapiens) (UniProt P04150))
Return: 9.43

----------
# System: ECU
# Protocol notes: qHTS profiling for inhibitors of Plasmodium falciparum proliferation (AID 504749); further: nearly all actives have a fitted effect of over 60% in size
# Assay context: P. falciparum in erythrocytes, SYBR Green DNA, 72 h; series mostly up to 28.7 µM
# Protocol: NIH National Institute of Allergy and Infectious Diseases [NIAID] NIH Chemical Genomics Center [NCGC] […] Because mature erythrocytes lack DNA, only Plasmodium-derived DNA is detected. NCGC Assay Protocol Summary: The SYBR Green viability assay was adapted from a method described previously (Plouffe et al., 2008). […] The following morning, fluorescence intensity at 485(14) nm excitation and 535(25) nm emission wavelengths was measured on an EnVision (Perkin Elmer) plate reader. […]
Results filed as inconclusive are left out. Calls of active or inactive are those of the source. Calls follow the shape of the dose curve; as a rule, active = well fitted inhibition curve with a large enough effect; inconclusive = small, poorly fitted or top-dose-only effect; inactive = flat fitted curve, though single readings scatter.
// one of active, inactive, no free text

Illustrative cases are given below, each with its answer.
Molecule: NC(=O)N1c2ccccc2CC(=O)c2ccccc21
Label value: inactive

Molecule: CC[C@H](NC(C)C)[C@H](O)c1ccc(O)c2[nH]c(=O)ccc12
Label value: inactive

Enquiry: Fill in: this test's call for CCOCC(O)COc1ccc(NC(=O)CC[S+](C)C)cc1 (stereo not given) is ___
Return: inactive

Enquiry: Fill in: this test's call for CC(C)(C#N)c1cc(Cn2cncn2)cc(C(C)(C)C#N)c1 is ___
Return: inactive

Enquiry: Fill in: this test's call for N=C(N)c1ccc(OCCCCCOc2ccc(C(=N)N)cc2)cc1 is ___
Return: active

Enquiry: Fill in: this test's call for CCn1cc(C(=O)O)c(=O)c2cc(F)c(N3CCNCC3)cc21 is ___
Return: inactive

Enquiry: Fill in: this test's call for COc1ncnc(NS(=O)(=O)c2ccc(N)cc2)c1OC is ___
Return: inactive

Enquiry: Fill in: this test's call for CC(C)Cn1cnc2c(N)nc3ccccc3c21 is ___
Return: inactive

Enquiry: Fill in: this test's call for CC[C@H](C)C(=O)O[C@H]1C[C@@H](C)C=C2C=C[C@H](C)[C@H](CC[C@@H]3C[C@@H](O)CC(=O)O3)[C@H]21 is ___
Return: inactive

Enquiry: Fill in: this test's call for COc1cc2c(Nc3ccc(Br)cc3F)ncnc2cc1OCC1CCN(C)CC1 is ___
Return: active

Enquiry: Fill in: this test's call for CC(C)OC(=O)C(C(=O)OC(C)C)=C1SC=CS1 is ___
Return: inactive

Enquiry: Fill in: this test's call for COc1ccc2cc3[n+](cc2c1OC)CCc1cc2c(cc1-3)OCO2 is ___
Return: active

Enquiry: Fill in: this test's call for COc1ccc(-c2ccc3cc(C(=O)O)ccc3c2)cc1C12CC3CC(CC(C3)C1)C2 is ___
Return: inactive

Enquiry: Fill in: this test's call for CC(C)NCC(O)c1ccc(NS(C)(=O)=O)cc1 (stereo not given) is ___
Return: inactive

Enquiry: Fill in: this test's call for C#CCN[C@@H]1CCc2ccccc21 is ___
Return: inactive

Enquiry: Fill in: this test's call for CC(N)C12CC3CC(CC(C3)C1)C2 (stereo not given) is ___
Return: inactive

----------
# Protocol notes: Cell Viability - LYMP2-018 (AID 985);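 further: compound exposure lasted 24 hr at 37 °C; nearly all actives have a fitted effect of over 50% in size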
# Assay context: LYMP2-018 lymphoblastoid cells, viability (qHTS); series mostly up to 92.2 µM
Results filed as inconclusive are left out. Activity calls are given as the source filed them. Calls come from the whole dose curve; as a rule, active = well fitted cell-killing curve with a large enough effect; inconclusive = small, poorly fitted or top-dose-only effect; inactive = flat fitted curve, though single readings scatter.
// one of TRUE for active, FALSE for inactive, no free text

Molecular string: CN(C)c1ccc(C(=C2C=CC(=[N+](C)C)C=C2)c2ccc(N(C)C)cc2)cc1
Label value: TRUE
//
Molecular string: NNC(=O)c1ccncc1
Label value: FALSE
//
Molecular string: Cc1nnc(NS(=O)(=O)c2ccc(N)cc2)s1
Label value: FALSE
//
Molecular string: CC[C@H](C)C(=O)O[C@H]1C[C@@H](C)C=C2C=C[C@H](C)[C@H](CC[C@@H]3C[C@@H](O)CC(=O)O3)[C@H]21
Label value: FALSE
//
Molecular string: Cc1ccnc2c1NC(=O)c1cccnc1N2C1CC1
Label value: FALSE
//
Molecular string: NC(N)=NC(N)=NCCc1ccccc1
Label value: FALSE

Enquiry: Fill in: this test's call for C[C@]12C=CC(=O)C=C1CC[C@@H]1[C@@H]2C(=O)C[C@@]2(C)[C@H]1CC[C@]2(O)C(=O)CO is ___
Return: FALSE

Enquiry: Fill in: this test's call for O=C(O)c1cc(=O)[nH]c(=O)[nH]1 is ___
Return: FALSE

----------
# System: KB-3-1
# Protocol notes: Cytotoxic Profiling of Annotated Libraries Using Quantitative High-Throughput Screening (AID 1296008); further: nearly all actives have a fitted effect of over 60% in size; further: potency means the concentration at half of the fitted maximal effect
# Assay context: Five cell lines viability, CellTiter-Glo ATP luminescence, 48-72 h
Results filed as inconclusive are left out. Calls of active or inactive are those of the source. Calls follow the shape of the dose curve; as a rule, active = well fitted inhibition curve with a large enough effect; inconclusive = small, poorly fitted or top-dose-only effect; inactive = flat fitted curve, though single readings scatter.
Quantity name: Potency

Solved entries:
Compound: Nc1nc(N)c2nc(CNc3ccc(C(=O)NC(CCC(=O)O)C(=O)O)cc3)cnc2n1 (stereo unspecified)
Potency: 33.2 nM (active)

Compound: CC1=C(C(=O)O)N2C(=O)[C@@H](NC(=O)C(N)c3ccccc3)[C@H]2SC1 (stereo partly specified)
Potency: inactive

Compound: CNS(=O)(=O)CCc1ccc2[nH]cc(C3CCN(C)CC3)c2c1
Potency: inactive

Compound: O=NN(CCCl)C(=O)NC1CCCCC1
Potency: inactive

Compound: CC(C(=O)O)c1ccc2c(c1)CC(=O)c1ccccc1S2 (stereo unspecified)
Potency: inactive

Now, please, on to the next compound.
Enquiry: For Cc1noc(NS(=O)(=O)c2ccc(N)cc2)c1C , write its Potency.
Return: inactive

Origin of values: PubChem BioAssay (NCATS)
